The values you see were collected from paper PMC6691788.

tested on: SK-MEL-28; test: NCI 60 cell panel SRB screen; type: cell-based; details: Homo sapiens; SK-MEL-28, 5 log dose, 48 h; read-out: LC50 (the source's name)
CC50 strictly less than 10 µM = condition met. Otherwise condition not met.

[[record]]
molecule = "COc1cccc(NCc2nnc(Nc3ccc(Cl)cc3)c3ccccc23)c1 [Compound 16d]"
system_name = "SK-MEL-28"
category_label = "condition not met"

[[record]]
molecule = "O=C(Nc1ccccc1)Nc1ccc(Oc2nnc(Cl)c3ccccc23)cc1 [Compound 13a]"
system_name = "SK-MEL-28"
category_label = "condition not met"

[[record]]
molecule = "Clc1ccc(Nc2nnc(COc3ccccc3)c3ccccc23)cc1 [Compound 17a]"
system_name = "SK-MEL-28"
category_label = "condition not met"

[[record]]
molecule = "O=C(Nc1ccc(Cl)cc1)Nc1ccc(Nc2nncc3ccccc23)cc1 [Compound 6b]"
system_name = "SK-MEL-28"
category_label = "condition not met"

[[record]]
molecule = "Cc1nnc(Nc2ccc(NC(=O)Nc3ccc(Cl)cc3)cc2)c2ccccc12 [Compound 6e]"
system_name = "SK-MEL-28"
category_label = "condition met"

[[record]]
molecule = "Clc1ccc(Nc2nnc(CNc3ccccc3)c3ccccc23)cc1 [Compound 16a]"
system_name = "SK-MEL-28"
category_label = "condition not met"

[[record]]
molecule = "O=C(Nc1ccc(Cl)cc1)Nc1ccc(Oc2nncc3ccccc23)cc1 [Compound 7b]"
system_name = "SK-MEL-28"
category_label = "condition met"


====

Measured CC50 values are reported for all entries that follow.
system: SN12C; test: NCI 60 cell panel SRB screen; assay type: cell-based; settings: Homo sapiens, 5 log dose, 48 h, read-out: LC50 (the source's name)
MEASURE: CC50

[[record]]
molecule = "O=C(Nc1ccccc1)Nc1ccc(Oc2nnc(Cl)c3ccccc23)cc1 [Compound 13a]"
meas_value = "> 25 µM"

[[record]]
molecule = "Cc1nnc(Nc2ccc(NC(=O)Nc3ccc(Cl)cc3)cc2)c2ccccc12 [Compound 6e]"
meas_value = "60.1 µM"

[[record]]
molecule = "Clc1ccc(Nc2nnc(COc3ccccc3)c3ccccc23)cc1 [Compound 17a]"
meas_value = "> 25 µM"

[[record]]
molecule = "Clc1ccc(Nc2nnc(CNc3ccccc3)c3ccccc23)cc1 [Compound 16a]"
meas_value = "> 25 µM"

[[record]]
molecule = "O=C(Nc1ccc(Cl)cc1)Nc1ccc(Oc2nncc3ccccc23)cc1 [Compound 7b]"
meas_value = "> 100 µM"

[[record]]
molecule = "O=C(Nc1ccc(Cl)cc1)Nc1ccc(Nc2nncc3ccccc23)cc1 [Compound 6b]"
meas_value = "> 100 µM"

[[record]]
molecule = "COc1cccc(NCc2nnc(Nc3ccc(Cl)cc3)c3ccccc23)c1 [Compound 16d]"
meas_value = "> 25 µM"


====

test system: IGROV1; test: NCI 60 cell panel SRB screen; assay type: cell-based; conditions: Homo sapiens, IGROV-1; IGROV1, 5 log dose
MEASURE: IC (TGI) (µM)

[[record]]
compound = "Clc1ccc(Nc2nnc(CNc3ccccc3)c3ccccc23)cc1 [Compound 16a]"
meas_value = 10.7

[[record]]
compound = "O=C(Nc1ccc(Cl)cc1)Nc1ccc(Oc2nncc3ccccc23)cc1 [Compound 7b]"
meas_value = 5

[[record]]
compound = "Cc1nnc(Nc2ccc(NC(=O)Nc3ccc(Cl)cc3)cc2)c2ccccc12 [Compound 6e]"
meas_value = 19.5

[[record]]
compound = "COc1cccc(NCc2nnc(Nc3ccc(Cl)cc3)c3ccccc23)c1 [Compound 16d]"
meas_value = 6.3

[[record]]
compound = "Clc1ccc(Nc2nnc(COc3ccccc3)c3ccccc23)cc1 [Compound 17a]"
meas_value = 6.37

[[record]]
compound = "O=C(Nc1ccc(Cl)cc1)Nc1ccc(Nc2nncc3ccccc23)cc1 [Compound 6b]"
meas_value = 30.7

[[record]]
compound = "O=C(Nc1ccccc1)Nc1ccc(Oc2nnc(Cl)c3ccccc23)cc1 [Compound 13a]"
meas_value = 7.92

